All figures here come from the nanobody polyreactivity screen of Harvey et al. (2022).

# Protocol Description: yeast display, Sf9 membrane polyspecificity reagent, FACS + sequencing; frameworks hold sequencing errors
Measured Endpoint: polyreactivity (PSR sort gate)

[[record]]
residue_string = "QVQLVESGGGLVQAGGSLRLSCAASGSTFYRYVMGWYRQAPGKERELVAAISKSDGSTYYADSVKGRFTISRDNAKNTVYLQMNSLIPEDTAVYYCAADGSKWDWWEYEYWGQGTQVTVSS"
measured_endpoint = "polyreactivity (PSR sort gate)"
assay_value = "high polyreactivity"

[[record]]
residue_string = "QVQLVESGGGLVQAGGSLRLSCAASGSTFVDYAMGWYRQAPGKERELVAAINRSGGRTYYADSVKGRFTISRDNAKNTVYLQMNSLKPEDTAVYYCAAKNPQPDEHGYWGQGTQVTVSS"
measured_endpoint = "polyreactivity (PSR sort gate)"
assay_value = "high polyreactivity"


----------
# Protocol Description: yeast display, Sf9 membrane polyspecificity reagent, FACS + sequencing; frameworks hold sequencing errors
Measured Endpoint: polyreactivity (PSR sort gate)

[[record]]
residue_string = "QVQLVESGGGLVQAGGSLRLICAASGRIFVPYVMGWYRQAPGKERELVASISDSDTSTYYADSVKGRFTISRDNAKNTVYLQMNSVKPEDTAVYYCNVDYWGQGTQVTVSS"
assay_value = "low polyreactivity"

[[record]]
residue_string = "QVQLVESGGGLVQAGGRLRLSCAASGSIFGVYDMGWYRQAPGKERELVAVINSNGGSTYYADSVKGRFTISRDNAKNTVYLQMNSLKPEDTAVYYCAAERATVKFGYWGQGTQVTVSS"
assay_value = "low polyreactivity"

[[record]]
residue_string = "QVQLVESGGGLVQAGGSLRLSCAASGSNFTLYAMGWYRPAPGKERELVAAISRRGDRTYYADSVKGRFTISRDNAKNTVYLQMNSLKPADTAVYSCNARRAPPLPYYYWGQGTQVTVSS"
assay_value = "high polyreactivity"

[[record]]
residue_string = "QVQVVESGGGLVQAGGSLRLSCAASGSTFVTYAMGWYRQARVKERELVAGISTGDITNYADSVKVRFTISRDNAKNTVYLQINRLKPEDTAVYYCSADLIQGAAPFRYDYWGQGTQVTVSS"
assay_value = "low polyreactivity"

[[record]]
residue_string = "QVQLVESGGGLVQAGGSLRLSCAASGFTFPGYTKGWYIQAPGKERELVATISRSGGSMFYADSVKGRFTISRDNAKNTVYLQMNSLKPEDTAVYYCNKSPSWWRYKTGLDYWGQGTQVTVSS"
assay_value = "high polyreactivity"

[[record]]
residue_string = "QVQLVESGGGLVQAGGSLRLSCAASGNTFEYYVMGWYRQAPGKERELVAAITWSTGSTYYADSVKGRFTISRDNAKNTVYLQKNSLKPEDTAVYYCAALYYFIFGRPTRFDYWGQGTQVTVSS"
assay_value = "low polyreactivity"

[[record]]
residue_string = "QVQLVESGGGLVQAGGSLRLSCAASGSTFGGYAMGWYRQAPGKERELVAAISNGDRTNYADSVKGRFTISRDNAKNTVYLQMNSLKPEDTAVYYCATQPLTWSSYRWDWRAQFDHWGQGTQVTVSS"
assay_value = "low polyreactivity"

[[record]]
residue_string = "QVQLVESGGGLVQAGGSLRLSCAACGRTFRRNAMGWYREAPGKERELVAAISTSGGRTYYADSVKGRFTISRDNAKNTVYLQMNSLKPEDTAVYYCAADIPQTDGYWGQGTQVTVSS"
assay_value = "low polyreactivity"

[[record]]
residue_string = "QVQLVESGGGLVQAVGSLRLSCAASGRTFSEYAMGWYRQAPGKERELVAAITGTGGSTYYADSVKGRFTISRDNAKNTVYLQMNSLKPEDTAVYFCAAEYYRYYFLSVSTDDYWGQGTQVTVSS"
assay_value = "high polyreactivity"

[[record]]
residue_string = "QVQLVESGGGLVQAGCSLRISCAASGSIYATKAIGWYRQAPGKERELVASISSGGCSTYYADSVKARFTISRDNAKNTVYLQLNSLKPEDTAVYYCARRIGHGSRPYWLETWRYPYDYWGQGTQVTVSS"
assay_value = "low polyreactivity"

[[record]]
residue_string = "QVQLVESGGGLVQAGGSLRLSCAASGSTFRWYAMGWYRQAPGKERELVAAIRYTGGSTYYADSVKGRFTISRDNAKNTVYLQMNSLKPEDTAVYYCNARTFRRYVSYSRTYVGYDYWGQGTQVTVSS"
assay_value = "high polyreactivity"

[[record]]
residue_string = "QVQLVESGGGLVQAGGSLRLSCAASGFIFGGYARGWYRQAPGKEREFVAAIRQRGGSTYYADSVKGRFTISRDNAKNTVYLQMNSLKPEDTAVYYCAAEPNTQWFDYWGQGTQVTVSS"
assay_value = "high polyreactivity"

[[record]]
residue_string = "QVQLVESGGGLVQAGGRLRLSCADSGSTFLYNAMGWYRQAPGKERELVAAITSDGSTSYADSVKGRFTISRDNAKNTVYLQMNSLKPEDTALYYSAAYGFQHLSSLPFSRHNYWGQGTQVTVSS"
assay_value = "low polyreactivity"

[[record]]
residue_string = "QVQLVESGGGLVQAGGSLRLSCAASGFTFFSYAMGWYRQAPGKERELVATITWSGGTYYADSVKGRFTISRDNAKNTVYVQMNSLKPEDTAVYYCNARRHYRRYSYRHNYWGQGTQVTVSS"
assay_value = "high polyreactivity"

[[record]]
residue_string = "QVQLQESGGGLVQVGGSLRLSCAASGTIIIYGFLGWNRQAPGKERELVASINLGGITNYADSVKGRFTISRDNAKNTVYLQMISLKPEDTAVYYCAAYVVTGQNYGYWGQGTQVTVSS"
assay_value = "low polyreactivity"

[[record]]
residue_string = "QVQLVESGGGLVQAGGSLRLSCAASGRTFRRYAMGWYRQAPGNERELVAAISYNGGRTYYADSVKGRFTISRDNAKNTVYLQMNSLKPEDTAVYYCNARGPSWFGGRYYHWGQGTQVTVSS"
assay_value = "high polyreactivity"

[[record]]
residue_string = "QVQLVESGGGLVQAGGSLRLSCAASGSARYDMGWYRQPNGKERELVAAISRRGGSTFYADSVKGRFTISRDNAKNTVYLQMNSLKPEDTAVYYCAADGRISYDYWGQGTQVTVSS"
assay_value = "low polyreactivity"

[[record]]
residue_string = "QVQLVESGGGLVQAGGSLSLSCAASGRTFSANTMGWSRQAPGKERELVAAISKSGGSTYYADSVKGRFTISRDNAKNTVYLQMNSLKPEDTAVYYCAARTSGYWYSYGSWGQGTQVTVSS"
assay_value = "high polyreactivity"

[[record]]
residue_string = "QVQLVESGGGLVQAGGSLRLSCAASGNIFRSYMGWYRQAPGKEREFVAGITWRGGNTYYADSVKGRFTISRDNAKNTVYLQMNSLKPEDTAVYYCAAEIFVYYRWYDYWGQGTQVTVSS"
assay_value = "high polyreactivity"

[[record]]
residue_string = "QVQLVESGGGLVQAGGSLSLSCAASGYIFVPYAMGWYRQAPGKERELVAAISWSTGTTYYADSVKGRFTISRDNAKNTVYLQMNSLKPEDTAVYYCAAEGYDWIYLYYGLGYWGQGTQVTVSS"
assay_value = "low polyreactivity"

[[record]]
residue_string = "QVQLVESGGGLVQAGGSLRLSCAASGITFVKNAMGWYRQAPGKERELVARIRIGGSTSYADSVKGRFTFSRDNAKNTVYLQMNSLKPEDTAVYYCARYAGRLSYRYEYWGQGTQVTVSS"
assay_value = "high polyreactivity"

